Numbers sourced from PubChem BioAssay.

# method description: growth suppression of PTEN-deleted HCT116, pilot screen, cell-based, HCT116 clonal line, CellTiter-Glo (AID 824);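 note: 0% = 20 µM Hyamine control and 100% = vehicle cell control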
# measurement parameters: 60 h, at 10 µM, active compounds read low
Results filed as inconclusive are left out.
Measured viability accompanies every entry in the list below.
test readout: viability (%)

>  <compound>
COc1cccc(-c2nc(CS(=O)CC(=O)NC3CC3)c(C)o2)c1 (stereo not given)

>  <test readout>
viability

>  <val>
101

$$$$
>  <compound>
COC1CCCCC1NS(=O)(=O)c1ccc(Cl)cc1 (stereo not given)

>  <test readout>
viability

>  <val>
99.6

$$$$
>  <compound>
Cc1onc(-c2ccccc2Cl)c1C(=O)N1CCN(c2cccc(Cl)c2)CC1

>  <test readout>
viability

>  <val>
22

$$$$
>  <compound>
O=C(CSCc1ccco1)Nc1cc(C(F)(F)F)ccc1N1CCOCC1

>  <test readout>
viability

>  <val>
79.1

$$$$
>  <compound>
CC(=O)/C(C(=N)N1CCN(C(c2ccccc2)c2ccccc2)CC1)=C(\C)O

>  <test readout>
viability

>  <val>
91.2

$$$$
>  <compound>
COc1ccc(OCC(=O)OCCN2C(=O)c3ccccc3C2=O)cc1

>  <test readout>
viability

>  <val>
106

$$$$
>  <compound>
O=C(Nc1ccc(S(=O)(=O)N2CCOCC2)cc1)C1COc2ccccc2O1 (stereo not given)

>  <test readout>
viability

>  <val>
104

$$$$
>  <compound>
CCOC(=O)Cc1csc(NC(NC(=O)CC)(C(F)(F)F)C(F)(F)F)n1

>  <test readout>
viability

>  <val>
96.7

$$$$
>  <compound>
Cc1[nH]c2ccc(-c3n[nH]c(=S)n3C)cc2c1C

>  <test readout>
viability

>  <val>
93.3

$$$$
>  <compound>
COc1ccc(Nc2nc(C)cc(C)c2C#N)cc1OC

>  <test readout>
viability

>  <val>
107

$$$$
>  <compound>
CC(=O)c1c(C(C)=O)c(C)n(-c2nc(-c3ccccc3)c(C)s2)c1C

>  <test readout>
viability

>  <val>
91.4

$$$$
>  <compound>
C(=C\c1ccccc1)/CSc1nnc(-c2cccnc2)o1

>  <test readout>
viability

>  <val>
93.1

$$$$
>  <compound>
CCCCNC(=O)NS(=O)(=O)c1ccc(NS(=O)(=O)c2ccccc2)cc1

>  <test readout>
viability

>  <val>
98.4

$$$$
>  <compound>
CCOC(=O)C1CCN(S(=O)(=O)c2cc(Br)cc3c2N(C(=O)C2CC2)CC3)CC1

>  <test readout>
viability

>  <val>
96.5

$$$$
>  <compound>
CCCSC1=C(C#N)C(c2ccc(Cl)cc2Cl)CC(=O)N1 (stereo not given)

>  <test readout>
viability

>  <val>
79.4

$$$$
